Hi there, I'd appreciate the recorded EC50 for every entry that follows.
# experimental_system: Heat shock factor protein 1 (Mus musculus, UniProt P38532)
# Sequence (P38532 whole entry): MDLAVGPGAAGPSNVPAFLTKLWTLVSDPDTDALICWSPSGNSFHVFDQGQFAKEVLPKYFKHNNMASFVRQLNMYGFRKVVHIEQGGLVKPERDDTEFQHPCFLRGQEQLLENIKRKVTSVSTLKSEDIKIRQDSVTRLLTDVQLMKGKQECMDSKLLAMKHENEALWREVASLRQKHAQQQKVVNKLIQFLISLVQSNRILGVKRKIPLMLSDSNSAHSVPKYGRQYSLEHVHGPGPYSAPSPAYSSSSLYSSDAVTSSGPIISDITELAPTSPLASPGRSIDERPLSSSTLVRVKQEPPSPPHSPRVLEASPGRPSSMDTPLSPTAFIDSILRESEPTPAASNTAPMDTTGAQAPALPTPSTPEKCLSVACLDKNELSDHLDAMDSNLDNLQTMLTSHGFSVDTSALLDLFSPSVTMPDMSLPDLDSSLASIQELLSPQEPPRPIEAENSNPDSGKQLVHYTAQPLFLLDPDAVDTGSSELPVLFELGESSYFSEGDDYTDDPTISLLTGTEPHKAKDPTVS
# assay_notes: enhancement of HSF1-driven luciferase signal – cell-based, NIH3T3, luminescence, dose retest, confirmation (AID 435004);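 note: stress induced by proteasome inhibitor MG132 added 30 min after compound; luciferase reporter driven by HSF1 response element in NIH3T3 cells; actives raise luminescence as potentiators of the MG132 stress response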
# Type: functional
Activity calls are given as the source filed them. Cut-off read from the data, not from the text of the source: actives have a measured EC50 and inactives only a lower limit.

Reference set (5 entries):
>  <compound>
OC(CNCc1ccco1)Cn1c2ccc(Br)cc2c2cc(Br)ccc21 (stereo unspecified)

>  <EC50>
> 260 µM (inactive)

$$$$
>  <compound>
COc1cc2nc(S)nc(NCc3cccs3)c2cc1OC

>  <EC50>
> 260 µM (inactive)

$$$$
>  <compound>
[O-]/[N+](=C\c1ccc(OC(F)F)cc1)c1ccccc1

>  <EC50>
> 260 µM (inactive)

$$$$
>  <compound>
Cc1nc2cc3[nH]c(C(F)(F)F)nc3cc2[nH]1

>  <EC50>
> 260 µM (inactive)

$$$$
>  <compound>
Cc1ccc(-n2nc3c(c2NC(=O)c2ccc4c(c2)OCO4)CSC3)c(C)c1

>  <EC50>
> 260 µM (inactive)

$$$$

Now for a further compound.
Recorded EC50 of `C#CC[N+]1(CC#Cc2ccccc2)CCCCC1` , please.
> 260 µM (inactive)
